Cited source for all entries: patent US9073893B2

assay: Pharmacokinetics and oral bioavailability in the mouse; assay type: in vivo; details: oral vs IV dose-normalized AUC, 10 mg/kg
MEASURED PARAMETER: F on AUC (%)
A number alone suffices; assume %.

Recorded F on AUC, per entry:
compound="Cn1c2cccc(C(N)=O)c2c(=O)n1C1CCN(CC2CC=CCC2)CC1 (centres unmarked) [Compound 65]" result=50
compound="Cn1c2cccc(C(N)=O)c2c(=O)n1C1CCN(C2CCC(F)(F)CC2)CC1 [Compound 6]" result=49

Please fill in: F on AUC reported for Cn1c2cc(F)cc(C(N)=O)c2c(=O)n1C1CCN(C2CCCCC2)CC1 [Compound 22] = 150

Measured F on AUC of Cn1c2cccc(C(N)=O)c2c(=O)n1C1CCN(C2CCCCC2)CC1 [Compound 5] : 109

The value of F on AUC measured for the compound NC(=O)c1cccc2[nH]n(C3CCN(C4CCCCC4)CC3)c(=O)c12 [Compound 3] turned out to be 67
